Source of measurements: the supplement of paper PMC9112550

# System: Escherichia coli TOP10;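 note: peptides expressed intracellularly from a pBAD plasmid library in pooled LB shake-flask culture, induced with 0.3% L-arabinose, DNA abundance read by NGS, three biological replicates, DESeq2 with apeglm shrinkage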
# Test Summary: shrunken log2 fold change of peptide-encoding DNA abundance (4.5 h post-induction vs induction); higher = less antimicrobial activity (less host growth inhibition)
# Measurement Context: time post-induction: 4.5 h; library: site-saturation at positions 5, 18, 19, 20
Param threshold (-0.1) applies to shrunken log2 fold change; output met when value >= threshold, not met when value < threshold.

Record Sequence | Assigned Category
RRIRMRPPRLPRPRPRPQCIPRP | met

-- ask Is shrunken log2 fold change at least -0.1? Consider "RRIRPRPPRLPRPRPRPCNDPRP"
-- reply not met

-- ask Please check the record "RRIRNRPPRLPRPRPRPPDMPRP" and state if its shrunken log2 fold change is at or above -0.1.
-- reply met

-- ask Check the entry "RRIRRRPPRLPRPRPRPSKFPRP" : does shrunken log2 fold change equal or exceed -0.1?
-- reply met

-- ask Does the reported shrunken log2 fold change for "RRIRVRPPRLPRPRPRPPNGPRP" fall at or above the -0.1 mark?
-- reply met

-- ask Identify whether the reported shrunken log2 fold change of the following sequence is -0.1 or greater: "RRIRPRPPRLPRPRPRPEIRPRP"
-- reply met

-- ask Confirm if shrunken log2 fold change reported for the sequence "RRIRERPPRLPRPRPRPFEWPRP" is -0.1 or above.
-- reply not met
